IC50 overview
biological target: MMP-13CD (catalytic domain of collagenase 3) (Homo sapiens, UniProt P45452); assay: Thiopeptolide hydrolysis assay, MMP-13; conditions: MMP13 IC50 μM, Table IVb;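 note: inhibition of enzymatic thiopeptolide substrate cleavage (100 µM) in pH 6.0 MES buffer with CaCl2 and DTNB, comparing hydrolysis with versus without inhibitor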
endpoint: IC50 (µM)

- COc1ccc(CNC(=O)c2ccc3c(c2)c(=O)n(CCS(=O)(=O)c2ccccc2)c(=O)n3C)cc1: 0.84
- COc1ccc(CNC(=O)c2cc3c(=O)n(Cc4ccc(C(=O)O)cc4)c(=O)n(C)c3cn2)cc1: 0.00074
- CCOC(=O)c1ccc(Cn2c(=O)c3cc(C(=O)NCc4ccc(OC)cc4)ccc3n(C)c2=O)cc1F: 0.009
- Cn1c(=O)n(Cc2ccccc2)c(=O)c2cc(C(=O)OC/C=C/c3cccnc3)ccc21: 0.34

* * *

Molecular target: MMP-1FL (full-length interstitial collagenase) (Homo sapiens)
Sequence (P03956 100-469): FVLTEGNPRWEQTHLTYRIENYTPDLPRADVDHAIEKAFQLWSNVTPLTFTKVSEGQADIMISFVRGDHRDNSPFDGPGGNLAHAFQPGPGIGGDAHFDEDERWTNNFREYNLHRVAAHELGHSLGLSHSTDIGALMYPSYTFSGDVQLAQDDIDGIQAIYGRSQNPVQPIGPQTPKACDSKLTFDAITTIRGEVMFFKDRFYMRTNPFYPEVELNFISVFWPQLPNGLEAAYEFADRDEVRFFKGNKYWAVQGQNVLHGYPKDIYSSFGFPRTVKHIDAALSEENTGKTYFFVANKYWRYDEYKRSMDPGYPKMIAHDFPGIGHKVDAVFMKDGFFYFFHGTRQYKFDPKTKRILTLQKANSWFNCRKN
Experiment: Thiopeptolide hydrolysis assay, MMP-1
Assay type: biochemical
Details: Table 1b; read-out: MMP01 IC50
pIC50: −log10 of the molar value. Structures can show the parent of a compound that is named as a salt.
The following compounds are shown together with reported pIC50 values.
endpoint: pIC50

• Cc1c(=O)n(Cc2ccc(-c3nn[nH]n3)cc2)c(=O)n2cc(C(=O)NCc3ccc(F)cc3)sc12 = < 4.00
• Cc1c(=O)n(Cc2ccc(Cl)cc2)c(=O)n2cc(C(=O)NCc3ccncc3)sc12 = < 4.52
• Cc1c(=O)n(Cc2ccc(S(N)(=O)=O)cc2)c(=O)n2cc(C(=O)NCc3ccncc3)sc12 [hydrochloride] = < 4.52
• Cc1c(=O)n(Cc2ccccc2)c(=O)n2cc(C(=O)NCc3ccncc3)sc12 [hydrochloride] = < 4.52
• Cc1c(=O)n(Cc2ccccc2)c(=O)n2cc(C(=O)NCc3ccc(F)c(F)c3)sc12 = < 4.00
• COC(=O)c1ccc(Cn2c(=O)c(C)c3sc(C(=O)NCc4ccc(F)cc4)cn3c2=O)cc1C = < 4.00
• Cc1cccc(CNC(=O)c2cn3c(=O)n(Cc4ccccc4)c(=O)c(C)c3s2)c1 = < 4.00
• COC(=O)c1ccc(Cn2c(=O)c(C)c3sc(C(=O)NCc4ccc(OC)cc4)cn3c2=O)cc1 = < 4.00
• COc1ccc(CNC(=O)c2cn3c(=O)n(Cc4ccccc4)c(=O)c(C)c3s2)cc1F = < 4.00
• Cc1c(=O)n(Cc2ccccc2)c(=O)n2cc(C(=O)NCc3ccc(C(F)(F)F)cc3)sc12 = < 4.52
• COc1ccc(CNC(=O)c2cn3c(=O)n(Cc4ccc(Cl)c(Cl)c4)c(=O)cc3s2)cc1 = < 4.00
• Cc1c(=O)n(Cc2ccc(C(=O)OCCN(C)C)cc2)c(=O)n2cc(C(=O)NCc3ccc(F)cc3)sc12 = < 4.00
• COC(=O)c1ccc(Cn2c(=O)c(C)c3sc(C(=O)NCc4ccc(F)cc4)cn3c2=O)cc1OC = < 4.52
• Cc1c(=O)n(Cc2ccc(C(=O)OCCN(C)C)cc2)c(=O)n2cc(C(=O)NCc3ccc(F)cc3)sc12 [hydrochloride] = < 4.52
• COc1ccc(CNC(=O)c2cn3c(=O)n(Cc4ccc(C(=O)OCCN(C)C)cc4)c(=O)c(C)c3s2)cc1 [hydrochloride] = < 4.52
• CC#CCn1c(=O)c(C)c2sc(C(=O)NCc3ccc(F)cc3)cn2c1=O = < 4.00
• Cc1c(=O)n(Cc2ccccc2)c(=O)n2cc(C(=O)NCc3ccc(Cl)c(Cl)c3)sc12 = < 4.52
• Cc1c(=O)n(Cc2ccc(C#N)cc2)c(=O)n2cc(C(=O)NCc3ccc(F)cc3)sc12 = < 4.00
• O=C(NCc1ccccc1)c1cn2c(=O)n(C(=O)c3ccccc3)c(=O)cc2s1 = < 4.52

* * *

Reported IC50 is given for each of the following compounds.
target: MMP-13CD (catalytic domain of collagenase 3) (Homo sapiens); test: Thiopeptolide hydrolysis assay, MMP-13; details: MMP13 IC50 (μM), Table 1b
Where a name gives a salt, the structure may show the parent alone.
endpoint: IC50 (µM)

* COC(=O)c1ccc(Cn2c(=O)c(C)c3sc(C(=O)NCc4cccc(F)c4)cn3c2=O)cc1 | 0.0715
* O=C(OCc1ccccc1)C1C[S+]([O-])c2cc(=O)n(Cc3ccccc3)c(=O)n21 (stereo not drawn) | 0.072
* Cc1c(=O)n(Cc2ccc(C(=O)OCCN(C)C)cc2)c(=O)n2cc(C(=O)NCc3ccc(F)cc3)sc12 [hydrochloride] | 0.071
